- system.tested: T1, LRRK2 Roc domain construct (human, UniProt Q5S007 1329-1520)
- T1 construct: not shown: N-terminal His6-tag of pET-28a
- T1 sequence: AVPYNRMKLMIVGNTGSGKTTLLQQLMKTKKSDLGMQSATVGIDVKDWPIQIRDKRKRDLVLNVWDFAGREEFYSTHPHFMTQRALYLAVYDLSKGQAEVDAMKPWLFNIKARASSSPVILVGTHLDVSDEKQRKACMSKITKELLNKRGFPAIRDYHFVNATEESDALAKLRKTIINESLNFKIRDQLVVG
- method.notes: ELISA, purified Nb on coated domain constructs
measure.name: binding result

| binder | binding result |
| --- | --- |
| Nb38 (CA14133) (VHH) VHH: QVQLVESGGGLVQPGGSLRLSCAASGSIRSIATSAWYRQPPGKQRELVAGISSGTTTNYADSVKGRFTISRDNAKNTVYLQMNSLKPEDTAVYYCHAWISGTWISGQGTQVTVSS | no binding |
| Nb17 (CA13606) (VHH) VHH: QVQLVESGGGLVQPGGSLRLSCAASGSNIGYMAWYRQAPGSQRELVARIASGGSANYADSVKGRFTISRDNVKNTVYLHMNSLKPVDTAVYYCHADAWYNSRWSDYWGQGTQVTVSS | no binding |
| Nb36 (CA14130) (VHH) VHH: QVQLVESGGGLVQPGGSLRLSCAASGSIRSITTSAWFRQPPGKQRELVAGISSGTSTNYADSVKGRFTISRDNAKNTVYLQMNSLKPEDTAVYYCHVWISGTWYSGQGTQVTVSS | no binding |
| Nb39 (CA14134) (VHH) VHH: QVQLVESGGGLVQAGGSLRLSCRASGGTFSTYAMGWFRQVPGKERETVAAVKWSGDMTYYADSVKGRFTISRDNAKNTVYLQMNSLRPEDTAVYYCAARRGLSYYRGPSEYDYWGQGTQVTVSS | no binding |

Now examine the next entry.
[Q] Given the entry Nb37 (CA14131) (VHH) VHH: QVQLVESGGGLVQPGGSLRLSCAASGSVFSTNTMAWFRQAPGKQREWVGGITPGGFTNYINSVKGRFTISRDNANNTIYLQMSSLRPEDTAVYYCNTLSRMALWGQGTQVTVSS , report its measured binding result.
[A] no binding
